Quick reference: composite z-score of the listed items.
measurement protocol: probe aEGFR binding to arrayed compounds – biochemical, biotinylated probe, 635/667 nm fluorescence, primary screen (AID 1097);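 further: probe is a biotinylated anti-EGFR antibody binding compounds printed on slides; score combines fluorescence near 667 nm and signal to noise of each spot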
conditions used: small-molecule microarray, higher = more signal
Please give the numeric answer without any surrounding text.

[[record]]
molecule = "O=C1OCC=C[C@H]2OC34C=CCN(Cn5nnc6ccccc65)C(=O)[C@H]3N(CCCCCO)C(=O)[C@@H]4[C@@H]12 (stereo partly drawn)"
measured_parameter = "composite z-score"
endpoint_value = -0.108


Query string: Given the molecule CCC(CC)C(O)C1C=CC2C(=O)N(c3ccccc3)C(=O)C2N1Nc1ccccc1 (stereo not drawn) , what is its reported composite z-score?
Result string: 0.228

Query string: Given the molecule `COCC(=C=CC[C@H](O)c1ccccc1OCCO)CCO` , what is its reported composite z-score?
Result string: -0.1

Query string: Given the molecule CCN(CC)c1ccc(N2CC=CC34O[C@@H]5/C=C\CCC(C)OC(=O)C5[C@H]3C(=O)N(CCCCCO)[C@@H]4C2=O)cc1 (stereo partly drawn) , what is its reported composite z-score?
Result string: -0.238

Query string: Given the molecule `COc1ccc([Si](C)(C)[C@H]2[C@H](CCn3cc([C@H](O)c4ccccc4)nn3)O[C@@]3(C(=O)N(C)c4ccccc43)[C@@H]2C)cc1` , what is its reported composite z-score?
Result string: -0.171

Query string: Given the molecule CC(CO)N1C(=O)[C@@H]2C3C(=O)OCCC/C=C\[C@H]3OC23C=CCN(CCN2CCOCC2)C(=O)[C@@H]13 (stereo partly drawn) , what is its reported composite z-score?
Result string: -0.187

Query string: Given the molecule `CC(=O)NCCCC[C@@H]1NC(=O)[C@H]2C[C@@H](C(=O)NCCCCCNC(=O)CS)[C@@H](c3ccc(O)cc3)N2C1=O` , what is its reported composite z-score?
Result string: -0.171

Query string: Given the molecule `C=C(CCCC)/C(=C/C[C@H](OC(C)=O)c1ccccc1OCCO)c1cnc2ccccc2c1` , what is its reported composite z-score?
Result string: -0.142
